Origin of measurements: patent US4693996A

# experimental-system: A1 adenosine receptor (Rattus norvegicus, UniProt P25099)
# Construct: isolated rat brain membranes
# Sequence (P25099 whole entry): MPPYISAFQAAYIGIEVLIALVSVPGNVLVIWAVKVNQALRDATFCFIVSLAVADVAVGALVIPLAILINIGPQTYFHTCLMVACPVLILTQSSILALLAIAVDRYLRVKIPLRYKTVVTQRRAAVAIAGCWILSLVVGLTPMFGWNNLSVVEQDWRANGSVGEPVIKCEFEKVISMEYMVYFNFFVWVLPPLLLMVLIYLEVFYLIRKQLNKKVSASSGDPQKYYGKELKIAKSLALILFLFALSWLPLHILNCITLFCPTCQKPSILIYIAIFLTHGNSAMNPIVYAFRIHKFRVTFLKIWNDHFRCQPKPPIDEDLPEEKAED
# assay-protocol: A1 adenosine receptor binding, isolated rat brain membranes
property-measured: IC50 (nM)
One number for each entry, in nM.

Req: What IC50 value was documented for this compound, OC[C@H]1O[C@@H](n2cnc3c(N[C@@H]4CCc5ccccc54)ncnc32)[C@H](O)[C@@H]1O ?
Resp: 30
